target: CqJHE (Culex quinquefasciatus); construct: full-length cDNA (ORF 1746 nt) from 4th instar larvae, predicted 19-residue signal peptide removed on secretion, mature 563 residues, 63,430 Da; recombinant baculovirus AcCqJHE in High Five cells, secreted; assay: JH III partition assay (radiolabelled JH III), […] min preincubation
Sequence (R4HZP1 20-582): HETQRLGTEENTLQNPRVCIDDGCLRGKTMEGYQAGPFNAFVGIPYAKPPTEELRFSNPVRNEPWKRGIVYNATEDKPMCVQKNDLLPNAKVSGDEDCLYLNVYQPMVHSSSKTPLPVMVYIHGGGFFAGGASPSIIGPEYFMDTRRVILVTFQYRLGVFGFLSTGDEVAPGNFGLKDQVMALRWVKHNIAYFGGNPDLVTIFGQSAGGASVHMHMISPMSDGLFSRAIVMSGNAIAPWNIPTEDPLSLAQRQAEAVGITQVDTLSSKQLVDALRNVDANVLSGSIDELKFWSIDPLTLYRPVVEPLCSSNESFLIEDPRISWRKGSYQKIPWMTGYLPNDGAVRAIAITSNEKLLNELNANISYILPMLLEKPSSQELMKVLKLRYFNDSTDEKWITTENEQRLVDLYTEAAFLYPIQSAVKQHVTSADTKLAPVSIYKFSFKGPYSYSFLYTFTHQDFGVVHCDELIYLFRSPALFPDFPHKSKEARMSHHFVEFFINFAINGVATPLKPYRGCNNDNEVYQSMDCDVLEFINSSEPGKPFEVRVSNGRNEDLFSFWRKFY
PROPERTY_NAME: pIC50
Give bare numbers, as −log10 of the molar value.

Q) Look up pIC50 for this compound: CCCCCCCCSCC(=O)C(F)(F)F
A) 9.64
